molecular target: human serotonin transporters (Homo sapiens, UniProt P31645); construct: expressed in transfected cells; assay: Serotonin Transporter Binding Assay ([3H]-citalopram displacement, HEK-hSERT cell membranes)
Sequence (P31645 whole entry): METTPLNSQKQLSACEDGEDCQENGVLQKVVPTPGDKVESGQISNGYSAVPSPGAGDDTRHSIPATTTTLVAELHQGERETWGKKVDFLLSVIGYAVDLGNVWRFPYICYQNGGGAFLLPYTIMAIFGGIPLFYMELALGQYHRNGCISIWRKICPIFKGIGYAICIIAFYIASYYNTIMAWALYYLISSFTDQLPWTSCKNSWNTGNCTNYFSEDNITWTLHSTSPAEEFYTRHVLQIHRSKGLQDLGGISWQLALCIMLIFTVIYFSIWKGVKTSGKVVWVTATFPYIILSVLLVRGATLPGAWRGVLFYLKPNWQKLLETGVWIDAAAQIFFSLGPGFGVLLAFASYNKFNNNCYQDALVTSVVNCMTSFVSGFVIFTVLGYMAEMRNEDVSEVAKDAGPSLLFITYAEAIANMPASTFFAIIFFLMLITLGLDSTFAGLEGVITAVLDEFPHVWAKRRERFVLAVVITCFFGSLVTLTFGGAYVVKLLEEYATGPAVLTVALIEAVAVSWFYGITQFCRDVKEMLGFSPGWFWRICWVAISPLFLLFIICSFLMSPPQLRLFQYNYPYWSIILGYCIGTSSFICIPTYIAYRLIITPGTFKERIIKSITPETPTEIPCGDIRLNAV
Measured Ki by item

Use these answered entries as a reference point.
Would you kindly share the measured Ki for Cn1cc(C2CCC(N3CCCC3)C2)c2cc(C#N)ccc21 (stereo not shown) ?
1 to 10 nM

Same again, this time with CCN(CC)C1CCC(c2cn(C)c3ccc(C#N)cc23)C1 (stereo not shown)
< 1 nM

For CN(C)C1CCC(c2cn(C)c3ccc(C#N)cc23)C1 (stereo not shown) then?
1 to 10 nM

Again, but for CCCNC1CCC(c2c[nH]c3ccc(C#N)cc23)C1 (stereo not shown)
< 1 nM

Then CNC1CCC(c2cn(C)c3ccc(C#N)cc23)C1 (stereo not shown) ?
1 to 10 nM

Further, for CNC1CCC(c2c[nH]c3ccc(C#N)cc23)C1 (stereo not shown) ?
1 to 10 nM

***
Entry under review: CCN(C)C1CCC(c2c[nH]c3ccc(F)cc23)C1 (stereo not shown) . Reported Ki?
1 to 10 nM

Another molecule to look at: CCNC1CCC(c2cn(C)c3ccc(C#N)cc23)C1 (stereo not shown)
< 1 nM

Item: N#Cc1ccc2[nH]cc(C3CCC(N4CCOCC4)C3)c2c1 (stereo not shown)
< 1 nM

Param item: CCNC1CCC(c2c[nH]c3ccc(C#N)cc23)C1 (stereo not shown)
1 to 10 nM
